# procedure text: 7-day oral dose range finding (DRF) and systemic exposure in rats
# Type: in vivo, Sprague Dawley rats
# condition info: male, Sprague Dawley, rat, in vivo, po, 60 mg/kg/day, AUC0–48
property name: AUC(0-t) (ng·h/mL)
Quick reminder: number only, in ng·h/mL, skip the unit.

Query string: Indicate the recorded AUC(0-t) value for this compound: Clc1ccc2c(NCC34CCCN3CCC4)ccnc2c1 [MG3]
Result string: 7330

----------
# Test system: P. falciparum 3D7 (CQ-S)
# procedure text: In vitro antimalarial activity, [3H]-hypoxanthine incorporation (LSHTM)
# Assay type: cell-based
# condition info: Plasmodium falciparum, 3D7, read-out: P. falciparum IC50 nM, 3D7 (CQ-S)
property name: IC50 (nM)
Quick reminder: number only, in nM, skip the unit.

- molecule: "CCN(CC)CCCC(C)Nc1ccnc2cc(Cl)ccc12 (centres unmarked) [CQ, chloroquine]"
  IC50 (nM): 12.1

Proceeding to the next molecule to report its IC50.
Query string: Find IC50 for C[C@H]1[C@@H](O)O[C@@H]2O[C@@]3(C)CC[C@H]4[C@H](C)CC[C@@H]1[C@@]24OO3 [DHA, dihydroartemisinin] on P. falciparum 3D7 (CQ-S) and write it down.
Result string: 3
